experiment: Plasma pharmacokinetics in MAD study (LC-MS/MS); assay type: in vivo, human (healthy volunteers); conditions: human, plasma; day 1, 30 mg oral; read-out: Geometric mean peak concentration (Cmax, CV%)
Reported endpoint: Cmax
Number first, unit second.

For record CCOCc1cnc(Cl)nc1Oc1ccc2c(ccc3sc4c(c32)NC[C@@H](C)NC4=O)n1 the listed Cmax is 63.4 ng/mL

----------
assay: Plasma pharmacokinetics in MAD study (LC-MS/MS); type: in vivo, human (healthy volunteers); settings: human, plasma; day 1, 10 mg oral; read-out: Geometric mean peak concentration (Cmax, CV%)
Reported endpoint: Cmax (ng/mL)
Give bare numbers, in ng/mL.

For record CCOCc1cnc(Cl)nc1Oc1ccc2c(ccc3sc4c(c32)NC[C@@H](C)NC4=O)n1 the listed Cmax is 20.5
